# assaySummary: HT1080 cell viability loss – fluorescence readout (AID 620);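 note: cells exposed to compound overnight then 4 h with Alamar Blue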
# measurementContext: at 10 µM
Hit rate of the full screen: of about 87,000 compounds, about 360 (0.41%) were called active. Cut-off read from the data, not from the text of the source: active = cytotoxicity above about 50%; inactive = the rest. The full list was thinned out, with actives kept by preference.
Hi there, use one of these labels in your reply, thanks! yes for active, no for inactive

- molecule: "CSc1nc2ccc(S(=O)(=O)N(C)C)cc2s1"
  category: "no"
- molecule: "O=C(CNS(=O)(=O)c1ccc(F)cc1)N1CCN(c2ccccc2)CC1"
  category: "no"
- molecule: "CCOC(=O)c1[nH]c2c(c1C)C(=O)CC(c1ccco1)C2 (centres undefined)"
  category: "yes"
- molecule: "COC(=O)c1c(N)sc(C(C)=O)c1C"
  category: "no"

We now examine a further molecule.
*Q* What was the test verdict on CC[C@H]1CN2CCc3cc(OC)c(OC)cc3[C@@H]2C[C@@H]1C[C@H]1NCCc2cc(OC)c(OC)cc21 ?
*A* yes
